- Test system: LXFL 529 NSCLC
- Measurement notes: NCI tumour cell line growth inhibition, 48 h
Outcome measure: TGI (µM)
Return type: number; implicit unit µM.

Enquiry: Using the record for COc1cc(C)c2c(c1C)OC(=O)c1c(C)c(Cl)c(O)c(C=O)c1O2 , report its TGI.
Return: 43.3

Enquiry: Using the record for Cc1ccc(C2(O)CC(c3ccc([N+](=O)[O-])o3)=NN2C(=O)COc2ccc(Cl)cc2)cc1 (centres undefined) , report its TGI.
Return: 10.9

Enquiry: Using the record for O=C1Nc2c(ccc(Cl)c2I)C1=O , report its TGI.
Return: 27.5

----------
For each of the compounds below, state its TGI.
- Test system: U251 CNS
- Measurement notes: NCI tumour cell line growth inhibition, 48 h

Enquiry: Using the record for COC(=O)C1=C2SCc3cccc(c3)CSC3=C(C(=O)OC)SC(=C(S2)S1)S3 , report its TGI.
Return: > 100 µM

Enquiry: Using the record for CN1NC(=Nc2ccccc2)Sc2c1cnn(-c1ccccc1)c2=O , report its TGI.
Return: > 100 µM

Enquiry: Using the record for C[C@H](N)C(=O)Nc1ccc(-c2nc3ccccc3s2)cc1 , report its TGI.
Return: 32.2 µM

Enquiry: Using the record for O=C(NCCCCCCNCc1cccc2ccccc12)Nc1cccc2ccccc12 , report its TGI.
Return: > 100 µM

Enquiry: Using the record for C1CNCCNCCN1 , report its TGI.
Return: > 100 µM

Enquiry: Using the record for CCOC(=O)c1c[nH]c2oc(/C=N/N3CC(CN4CCOCC4)OC3=O)cc2c1=O (centres undefined) , report its TGI.
Return: > 100 µM

Enquiry: Using the record for NCCSc1nc2ccccc2c(=O)n1-c1ccccc1 , report its TGI.
Return: > 100 µM

Enquiry: Using the record for C[C@]12CC[C@@H]3c4ccc(O)cc4CC[C@H]3[C@@H]1CC[C@@H]2NS(=O)(=O)c1cccc(F)c1 , report its TGI.
Return: 12.1 µM

Enquiry: Using the record for CC(C)C(=O)/C=C/c1ccc(Br)cc1 , report its TGI.
Return: 22.9 µM

Enquiry: Using the record for O=c1c2c([N+](=O)[O-])cccc2nc2[nH]c3ccccc3n12 , report its TGI.
Return: > 75 µM

Enquiry: Using the record for N#Cc1nc(-c2cccs2)oc1N , report its TGI.
Return: > 100 µM

Enquiry: Using the record for O=C(Nc1cc(Cl)ccc1Cl)C(=O)C(c1cnc2ccccc2n1)[N+](=O)[O-] (centres undefined) , report its TGI.
Return: > 100 µM

Enquiry: Using the record for O=C(CSc1nnc(Cc2ccccc2)o1)Nc1ccc([N+](=O)[O-])cc1 , report its TGI.
Return: > 100 µM

Enquiry: Using the record for OCC1OC(n2cnc3c(Cl)nc(Nc4ccccc4)nc32)CC1O (centres undefined) , report its TGI.
Return: > 100 µM

Enquiry: Using the record for O=C1CC2C(=O)N(Cc3ccccc3)C1C=C2S(=O)(=O)c1ccccc1 (centres undefined) , report its TGI.
Return: > 100 µM

Enquiry: Using the record for CCOP(=O)(OCC)c1c(C(=O)OC)cc(=O)[nH]c1-c1ccc(C)cc1 , report its TGI.
Return: 29.3 µM

Enquiry: Using the record for NC1=NS(=O)(=O)Nc2nc(-c3ccc(Cl)cc3)c(-c3ccc(Cl)cc3)nc21 , report its TGI.
Return: > 100 µM

Enquiry: Using the record for C=CCNC(=O)N(CCC)CCCCC(NC(C)=O)C(=O)NCc1ccccc1 (centres undefined) , report its TGI.
Return: > 100 µM

Enquiry: Using the record for CC1=NN(c2ccc(S(=O)(=O)O)cc2)C2(C1)SCC(=O)N2c1nc2ccccc2s1 (centres undefined) , report its TGI.
Return: > 100 µM

Enquiry: Using the record for CC1=NN2C(=N)/C(=C/c3ccco3)C(=O)N=C2S1 , report its TGI.
Return: > 100 µM

Enquiry: Using the record for O=C(Nc1ccc(CO)cc1)c1coc2ccccc2c1=O , report its TGI.
Return: > 100 µM

Enquiry: Using the record for CCCCCCCCCCCCCCCCCC(=O)O[C@H](COC(=O)CCCCCCCCCCC)COC(=O)CCCCCCCCCCCCCCC , report its TGI.
Return: > 100 µM

Enquiry: Using the record for CC(C)CNC(=O)O , report its TGI.
Return: > 100 µM

Enquiry: Using the record for O=C1CCCCC(=O)OC2(CCCCC2=O)CC1 (centres undefined) , report its TGI.
Return: > 100 µM
